Test system: HeLa S3
Assay: Cytotoxicity against human HeLaS3 cells assessed as cell growth incubated for 48 hrs by MTT assay
Assay type: functional, cell-based
Settings: HeLa S3, 48 h

compound: CCCC/C=C(\C)c1c(C)cc(C)c2[n+]1CC(C)C=C2 (configuration not stated)
scale unit: nM
value prefix: =
IC50: 640
//
compound: CC/C=C/c1c(C)cc(C)c2[n+]1CC(C)C=C2 (configuration not stated)
scale unit: nM
value prefix: =
IC50: 2000
//
compound: CCCCCC/C=C/c1c(C)cc(C)c2[n+]1CC(C)C=C2 (configuration not stated)
scale unit: nM
value prefix: =
IC50: 170
//
compound: CCCC/C=C(\C)c1nc(/C=C\C(C)C)c(C)cc1C
scale unit: nM
value prefix: >
IC50: 30000
//
compound: CCCCCCc1c(C)cc(C)c2[n+]1CC(C)C=C2 (configuration not stated)
scale unit: nM
value prefix: =
IC50: 470
//
compound: CCCC/C=C/c1c(C)cc(C)c2[n+]1CC(C)CC2 (configuration not stated)
scale unit: nM
value prefix: =
IC50: 580
//
compound: CNC(=O)CCCCCc1c(C)cc(C)c2[n+]1CC(C)C=C2 (configuration not stated)
scale unit: nM
value prefix: >
IC50: 30000
//
compound: CCCC/C=C(\C)c1c(C)cc(C)c2[n+]1CC(C)CC2 (configuration not stated)
scale unit: nM
value prefix: =
IC50: 360
//
compound: CCCC/C=C(\C)c1c(C)cc(C)c[n+]1CCCC
scale unit: nM
value prefix: =
IC50: 720
//
compound: CCCCCCCCCCCC/C=C/c1c(C)cc(C)c2[n+]1CC(C)C=C2 (configuration not stated)
scale unit: nM
value prefix: =
IC50: 38
//
compound: CCCC/C=C(\C)c1c(C)cc(C)c2[n+]1CCC=C2
scale unit: nM
value prefix: =
IC50: 680
//
compound: CCCCCCCC/C=C/c1c(C)cc(C)c2[n+]1CC(C)C=C2 (configuration not stated)
scale unit: nM
value prefix: =
IC50: 51

====

System: HeLa S3
Assay: Cytotoxicity against human HeLaS3 cells assessed as cell growth incubated for 48 hrs by MTT assay
Type: functional, cell-based
Conditions: HeLa S3, 48 h
pIC50: −log10 of the molar value.
measure name: pIC50

compound: CCCC/C=C/c1c(C)cc(C)c2[n+]1CC(C)C=C2 (stereo not drawn)
quantitative result: 6.43
--
compound: CCCCCCCCCC/C=C/c1c(C)cc(C)c2[n+]1CC(C)C=C2 (stereo not drawn)
quantitative result: 7.28
--
compound: CCCCCCCCCCCCCC/C=C/c1c(C)cc(C)c2[n+]1CC(C)C=C2 (stereo not drawn)
quantitative result: 7.24

All figures here come from ChEMBL document CHEMBL4627253.
